- system name: Signal transducer and activator of transcription 3 (Homo sapiens) (UniProt P40763)
- Sequence (P40763 whole entry, looked up): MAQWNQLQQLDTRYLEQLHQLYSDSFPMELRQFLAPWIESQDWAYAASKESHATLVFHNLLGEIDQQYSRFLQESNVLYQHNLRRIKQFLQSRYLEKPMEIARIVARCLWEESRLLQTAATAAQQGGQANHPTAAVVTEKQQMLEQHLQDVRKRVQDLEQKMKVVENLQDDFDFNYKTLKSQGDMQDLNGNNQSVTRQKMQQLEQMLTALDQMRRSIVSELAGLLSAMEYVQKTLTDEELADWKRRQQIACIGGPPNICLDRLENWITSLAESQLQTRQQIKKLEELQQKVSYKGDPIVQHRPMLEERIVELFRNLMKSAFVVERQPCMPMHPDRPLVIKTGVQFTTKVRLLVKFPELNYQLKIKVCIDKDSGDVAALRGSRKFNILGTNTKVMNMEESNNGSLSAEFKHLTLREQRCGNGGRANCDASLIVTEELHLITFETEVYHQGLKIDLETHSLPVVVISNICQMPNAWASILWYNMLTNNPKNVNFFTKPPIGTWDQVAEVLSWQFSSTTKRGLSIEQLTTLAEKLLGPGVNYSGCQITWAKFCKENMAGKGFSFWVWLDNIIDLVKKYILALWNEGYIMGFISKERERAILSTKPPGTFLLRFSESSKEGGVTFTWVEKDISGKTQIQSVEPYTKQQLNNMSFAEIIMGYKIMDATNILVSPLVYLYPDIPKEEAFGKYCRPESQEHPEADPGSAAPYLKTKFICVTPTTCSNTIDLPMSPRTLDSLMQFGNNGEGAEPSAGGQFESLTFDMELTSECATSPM
- assay comment: small molecules binding His-tagged STAT3 – biochemical, small molecule microarray, single point, set 2, primary screen (AID 624138)
- experimental parameters: anti-His fluorescence
Hit rate of the full screen: of about 17,000 compounds, about 35 (0.2%) were called active.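 The calls were made as follows: active = compounds whose four printed spots each show fluorescence over background unusually high for their array block, chance value under 7%; inactive = the rest.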 The full list was thinned out, with actives kept by preference.
Possible outcomes: True (active), False (inactive)

1. CCCN(C)C[C@@H]1Oc2ncc(C#Cc3ccccc3)cc2C(=O)N([C@H](C)CO)C[C@@H]1C | False
2. C[C@@H]1CN([C@@H](C)CO)C(=O)c2cc(NC(=O)Nc3cccc4ccccc34)ccc2O[C@@H]1CN(C)C(=O)NC1CCCCC1 | False
3. Cc1ccc(NC(=O)C(C)N(c2ccc(Cl)cc2)S(C)(=O)=O)c(C)c1 (stereo not drawn) | False
4. O=C(NCc1ccccc1)C1=C[C@H](C2CC2)C[C@H](OCc2ccc(CO)cc2)O1 | False
5. CC(C)(C)c1ccc(OCC(=O)Nc2cccc(NC(=O)c3ccccc3)c2)cc1 | False
6. COC(=O)CCCCCCC(=O)Nc1ccc(C2OC(CSc3nc(-c4ccccc4)c(-c4ccccc4)o3)CC(c3ccc([N+](=O)[O-])cc3)O2)cc1 (stereo not drawn) | False
7. Cc1nnc(SCc2cc(=O)[nH]c(N3CCN(Cc4ccccc4)CC3)n2)s1 | False
8. O=C(NCc1ccccc1)C1=C[C@@H](C2CCCCC2)C[C@@H](OCc2ccc(CO)cc2)O1 | True

====

- system name: Signal transducer and activator of transcription 3 (Homo sapiens) (UniProt P40763)
- assay comment: small molecules binding His-tagged STAT3 – biochemical, small molecule microarray, single point, set 2, primary screen (AID 624138)
- experimental parameters: anti-His fluorescence
Among all 17,000 compounds or so, about 35 (0.2%) were called active.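 How the source made its calls: active means compounds whose four printed spots each show fluorescence over background unusually high for their array block, chance value under 7%; inactive means the rest.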 This excerpt belongs to a sample that is enriched for actives.
Possible outcomes: 1 (yes) = active, 0 (no) = inactive

1) CC(C)NC(=O)Nc1ccc2c(c1)C(=O)N([C@H](C)CO)C[C@H](C)[C@@H](CN(C)C(=O)CCCN(C)C)OCCCC[C@@H](C)O2 | 0 (no)
2) O=C(C1=C[C@@H](c2ccccc2)C[C@@H](OCCCCO)O1)N1CCN(Cc2ccccc2)CC1 | 0 (no)
3) C[C@H](CO)N1C[C@H](C)[C@H](CN(C)C(=O)CCC(F)(F)F)OCCCC[C@H](C)Oc2ccc(NS(C)(=O)=O)cc2C1=O | 1 (yes)
4) C[C@@H]1CN([C@H](C)CO)C(=O)c2cccc(NC(=O)C3CCOCC3)c2O[C@H]1CN(C)S(=O)(=O)c1ccc(Cl)cc1 | 0 (no)
5) OC(CCCN1CCN(c2ncc(F)cn2)CC1)c1ccc(F)cc1 (stereo not drawn) | 0 (no)
6) C[C@H]1CN([C@@H](C)CO)C(=O)CCCn2nncc2CO[C@H]1CN(C)Cc1ccccc1 | 0 (no)
7) COc1ccc(S(=O)(=O)Nc2ccc3c(c2)C(=O)N([C@H](C)CO)C[C@@H](C)[C@@H](CN(C)Cc2ccccc2)O3)cc1 | 0 (no)
8) C[C@H](CO)N1C[C@H](C)[C@@H](CN(C)S(=O)(=O)c2cn(C)cn2)Oc2ccc(NS(=O)(=O)c3cn(C)cn3)cc2C1=O | 0 (no)
9) C/C(=C/CC[C@@H](CO)[C@H]1CC[C@@]2(C)[C@@H]3CC[C@H]4C(C)(C)[C@@H](O[C@@H]5O[C@H](CO)[C@@H](O)[C@H](O)[C@H]5O)C[C@H](O)[C@@]45C[C@@]35CC[C@]12C)CO | 0 (no)
10) Oc1ccc(-c2c(-c3ccccc3)nn3c(C(F)(F)F)cc(C(F)(F)F)nc23)cc1 | 0 (no)
11) C[C@@H]1CN([C@H](C)CO)C(=O)CCCn2cc(nn2)CO[C@H]1CN(C)S(=O)(=O)c1ccc(Oc2ccccc2)nc1 | 0 (no)
12) C[C@H](CO)N1C[C@H](C)[C@@H](CN(C)Cc2ccncc2)Oc2ccc(NC(=O)Nc3ccccc3)cc2C1=O | 0 (no)
13) Cc1ccc(-n2c(SCC(=O)c3ccccc3)nnc2-c2ccncc2)cc1C | 0 (no)
14) COc1ccc(S(=O)(=O)N(C)C[C@@H]2Oc3c(NS(=O)(=O)c4ccccc4)cccc3C(=O)N([C@@H](C)CO)C[C@@H]2C)cc1 | 0 (no)
15) C[C@@H]1CN([C@H](C)CO)C(=O)c2cc(NC(=O)Nc3ccc4c(c3)OCO4)ccc2O[C@@H]1CN(C)Cc1ccc(C(F)(F)F)cc1 | 0 (no)
16) C#CCN1C(Cc2ccccc2)C(=O)O[C@H](C2CCCCC2)[C@@H]1/C=C/C1CC1 (stereo partly drawn) | 0 (no)
17) C[C@@H]1CN([C@H](C)CO)C(=O)c2cc(NC(=O)Nc3ccccc3)ccc2O[C@@H](C)CCCCO[C@@H]1CN(C)S(=O)(=O)c1ccc(F)cc1 | 0 (no)
18) C=C1CCCC(C)(C(=O)OC)C1CC/C(C)=C/CCC1=CC(=O)OC1 (stereo not drawn) | 0 (no)
19) CC(Oc1ccccc1)C(=O)N[C@@H]1C(=O)N2[C@@H]1SC(C)(C)[C@@H]2C(=O)O (stereo partly drawn) | 0 (no)
20) Cc1noc(C)c1NC(=O)N(C)C[C@@H]1Oc2ccc(NC(=O)Nc3ccc4c(c3)OCO4)cc2CC(=O)N([C@H](C)CO)C[C@H]1C | 0 (no)
21) C[C@H]1CN([C@@H](C)CO)C(=O)Cc2cc(NC(=O)C3CC3)ccc2O[C@@H]1CN(C)S(=O)(=O)c1cccs1 | 0 (no)
22) COc1ccc(NC(=O)Nc2nn(Cc3ccc(Cl)cc3Cl)cc2Br)cc1OC | 0 (no)
23) COc1c(Br)cc2c(cc(C)n2-c2ccccc2)c1OCC(O)CNC(C)C (stereo not drawn) | 0 (no)
24) CC(=O)Nc1ccc(NC(=O)CC2C(=O)Nc3ccccc3N2C(C)=O)cc1 (stereo not drawn) | 0 (no)
25) Cc1ccc(N(C(=O)COc2ccccc2[N+](=O)[O-])C2C=CS(=O)(=O)C2)cc1 (stereo not drawn) | 0 (no)
26) O=C(CS(=O)(=O)c1ccccc1)Nc1ccc2c(c1)OCCO2 | 0 (no)
27) O=C(NC1CC1)C1=C[C@H](c2coc3ccccc3c2=O)C[C@H](OCCCCO)O1 | 0 (no)
28) CNC[C@@H]1Oc2ccc(NC(=O)Nc3ccc4c(c3)OCO4)cc2C(=O)N([C@H](C)CO)C[C@@H]1C | 0 (no)
29) C[C@@H]1CCCCO[C@H](CN(C)C(=O)Nc2ccc3c(c2)OCO3)[C@@H](C)CN([C@@H](C)CO)C(=O)c2cc(NC(=O)CCC(F)(F)F)ccc2O1 | 0 (no)
30) C[C@@H]1CN([C@@H](C)CO)C(=O)c2cc(NS(C)(=O)=O)ccc2O[C@@H]1CN(C)C(=O)Nc1ccc(F)cc1 | 0 (no)
31) COc1ccc(-c2cnc3c(-c4ccsc4)cnn3c2)cc1 | 0 (no)
32) CC1(C)CC(=O)c2ccc(O)cc2O1 | 0 (no)
33) C[C@H](CO)N1C[C@H](C)[C@H](CN(C)C)Oc2c(NS(=O)(=O)c3ccc(Cl)cc3)cccc2C1=O | 0 (no)
